The following compounds are shown together with reported TGI values.
# Tested on: LXFL 529 NSCLC
# PROTOCOL_SUMMARY: NCI tumour cell line growth inhibition, 48 h
Where a SMILES comes first, the peptide text is derived from it. [ ]: non-standard residue; d: D form. The star is where a group is joined. ξ: configuration not given here. NMeF = CN[C@@H](Cc1ccccc1)C(=O)O; ξNMeV = CNC(C(=O)O)C(C)C; Boc = CC(C)(C)OC(=O)*; OBn = c1ccc(CO*)cc1
PARAMETER_MEASURED: TGI

INSERT INTO results (compound, observed_value) VALUES
  ('O=c1c2ccccc2nc(-c2ccccc2)n1NC(=S)Nc1ccc(Cl)cc1[N+](=O)[O-]', '> 100 µM'),
  ('N#CC(C#N)=CSc1ccccc1', '> 100 µM'),
  ('O=C1C2CCC(C2)C12CC1(c3ccccc3)C(=O)c3ccccc3N1O2 (centres undefined)', '> 100 µM'),
  ('C=C1Oc2nc3ccccc3c(=O)n2C1(C)C', '> 100 µM'),
  ('CC(C)(C)[Si](C)(C)O/N=C\c1ccc(O[Si](C)(C)C(C)(C)C)cc1', '> 100 µM'),
  ('CC1=C(c2cc(C(=O)Nc3ccc(Cl)c(Cl)c3)nc(N)n2)Sc2ccccc2N1', '> 100 µM'),
  ('NCC(NC(=O)OCc1ccccc1)C(=O)O (centres undefined)', '> 50 µM'),
  ('CCOc1ccc(N=Nc2ccc3oc(=O)c(C(=O)Nc4ccc(OC)cc4)cc3c2)cc1', '> 100 µM'),
  ('O=C1Nc2ccccc2Nc2nc3cccccc-3c21', '> 100 µM'),
  ('CSc1ccc2c(cc1=O)C(NC(=O)c1ccc(OC(C)=O)cc1)CCc1cc(O)c(O)c(O)c1-2 (centres undefined)', '35.2 µM'),
  ('Cc1cc(NS(=O)(=O)c2ccc(NC(=O)c3cccc4c(Nc5ccc(S(=O)(=O)Nc6cc(C)on6)cc5)c5ccccc5nc34)cc2)no1', '95.5 µM'),
  ('CC(C)C(C(=O)N1CCC[C@@H]1C(=O)OCc1ccccc1)N(C)C(=O)C(C(C)C)N(C)C(=O)[C@H](Cc1ccccc1)N(C)C(=O)[C@H](NC(=O)OC(C)(C)C)C(C)C (some centres undefined) (Boc-[dV][NMeF][ξNMeV][ξNMeV][dP]-OBn)', '> 100 µM'),
  ('CCOC(=O)C(=O)N=Nc1nc2c(O)c3ccccc3c(O)c2s1', '3.3 µM'),
  ('CCC[CH2][Sn]([CH2]CCC)([O]C(=O)c1nccnc1N)[O]C(=O)c1nccnc1N', '0.327 µM'),
  ('CCN(CC)C(=S)SC1CCOP(=O)(N(CCCl)CCCl)N1C (centres undefined)', '19.3 µM'),
  ('COC(=O)N/N=C/c1oc(-c2ccccc2)c(-c2ccccc2)c1[N+](=O)[O-]', '> 100 µM'),
  ('COc1cccc(NC(=O)CC(=O)N2NC(C)C(N=Nc3cccc(C(=O)O)c3)C2=O)c1 (centres undefined)', '> 100 µM'),
  ('O=C(O)C#CCO', '> 100 µM'),
  ('CC(C)C(=O)/C=C/c1ccc(Cl)cc1', '30.4 µM');

* * *

# Tested on: NCI-H460 lung
# PROTOCOL_SUMMARY: NCI tumour cell line growth inhibition, 48 h
The following molecules are shown together with reported TGI values.
PARAMETER_MEASURED: TGI

INSERT INTO measurements (molecule, parameter_measured, observed_value) VALUES
  ('CC(=O)NCCc1c[nH]c2ccc(Cl)cc12', 'TGI', '> 100 µM'),
  ('O=C(Nc1ccccc1Br)c1cccc([N+](=O)[O-])c1O', 'TGI', '> 37.9 µM'),
  ('COc1cccc(C2C3=C(COC3=O)N(CCO)c3cc4c(cc32)OCCO4)c1 (stereo unspecified)', 'TGI', '1.19 µM'),
  ('O=C(NNC(=O)c1ccncc1)c1ccncc1', 'TGI', '> 100 µM'),
  ('CC1(C)CCc2cc3c(-c4ccccc4)cc(=O)oc3cc2O1', 'TGI', '> 100 µM'),
  ('Nc1ncnc2c1ncn2C1CCC(CO)O1 (stereo unspecified)', 'TGI', '> 100 µM');
